Overview of recorded response vs control in vivo at 0.75 mg/kg for various compounds
# Tested on: lymphocytic leukemia P388
# protocol-details: Lymphocytic Leukemia P388 Test
# Format: in vivo, BDF1 mice
# conditions: Mus musculus, P388, ip, read-out: T/C × 100 (%)
*1 amine or outer side, *2 acyl side, *3 side chain or, on linkers, in order; H or OH if unused. Where a SMILES comes first, the peptide text is derived from it. Bridges are numbered along the chain shown (N, C = ends). Roman numbers before positions name the chains, in order. X1 = O=C1c2c(O)ccc(O)c2C(=O)c2c(NCCN[*:2])ccc(NCCN[*:1])c21
Provide the reading as a plain figure in %.

>>> reading("CC(C)C[C@H](NC(=O)[C@H](C)NC(=O)[C@H](C)NC(=O)OC(C)(C)C)C(=O)NCCNc1ccc(NCCNC(=O)[C@H](CC(C)C)NC(=O)[C@H](C)NC(=O)[C@H](C)NC(=O)OC(C)(C)C)c2c1C(=O)c1c(O)ccc(O)c1C2=O [Example 67]")
155
>>> reading("C[C@H](NC(=O)OC(C)(C)C)C(=O)N[C@@H](C)C(=O)N(CCNc1ccc(NCCN(C(=O)[C@H](C)NC(=O)[C@H](C)NC(=O)OC(C)(C)C)[C@@H](C)C(=O)O)c2c1C(=O)c1c(O)ccc(O)c1C2=O)[C@@H](C)C(=O)O [Example 7.]")
176
>>> reading("CC(C)C[C@H](NC(=O)CNC(=O)CNC(=O)OCc1ccccc1)C(=O)NCCNc1ccc(NCCNC(=O)[C@H](CC(C)C)NC(=O)CNC(=O)CNC(=O)OCc2ccccc2)c2c1C(=O)c1c(O)ccc(O)c1C2=O [Example 69]")
170

Recorded result, Br.Br.C[C@H](NC(=O)[C@@H]1CCCN1C(=O)CNC(=O)CNC(=O)[C@@H]1CCCN1C(=O)CN)C(=O)NCCNc1ccc(NCCNC(=O)[C@H](C)NC(=O)[C@@H]2CCCN2C(=O)CNC(=O)CNC(=O)[C@@H]2CCCN2C(=O)CN)c2c1C(=O)c1c(O)ccc(O)c1C2=O [Example 64] (I: H-GPGGPA / II: H-GPGGPA; linker I:C-II:C via X1) , response vs control in vivo at 0.75 mg/kg: 195

* * *

# Test system: lymphocytic leukemia P388
# protocol-details: Lymphocytic Leukemia P388 Test
# Type: in vivo, BDF1 mice
# conditions: dose 0.75 mg/kg intraperitoneally on days 1, 5 and 9; BDF1 mice
Note to self: values exactly at 20 days are Condition met. So Median Survival at or above 20 days is Condition met, below is Condition not met.

Below, 3 molecules whose answers are already recorded.
>>> assigned_category("CC(C)C[C@H](NC(=O)[C@H](C)NC(=O)[C@@H](N)CC(=O)O)C(=O)NCCNc1ccc(NCCNC(=O)[C@H](CC(C)C)NC(=O)[C@H](C)NC(=O)[C@@H](N)CC(=O)O)c2c1C(=O)c1c(O)ccc(O)c1C2=O.O=C(O)C(F)(F)F.O=C(O)C(F)(F)F")
"Condition met"
>>> assigned_category("CC(C)C[C@H](NC(=O)[C@H](C)NC(=O)[C@H](C)NC(=O)OC(C)(C)C)C(=O)NCCNc1ccc(NCCNC(=O)[C@H](CC(C)C)NC(=O)[C@H](C)NC(=O)[C@H](C)NC(=O)OC(C)(C)C)c2c1C(=O)c1c(O)ccc(O)c1C2=O")
"Condition not met"
>>> assigned_category("Cl.Cl.NCC(=O)NCCNc1ccc(NCCNC(=O)CN)c2c1C(=O)c1c(O)ccc(O)c1C2=O")
"Condition met"

Now for a further molecule.
Data request: Could you please find out whether CC(NC(=O)C(N)CC(=O)OC(C)(C)C)C(=O)NC(C)C(=O)NCCNc1ccc(NCCNC(=O)C(C)NC(=O)C(C)NC(=O)C(N)CC(=O)OC(C)(C)C)c2c1C(=O)c1c(O)ccc(O)c1C2=O (centres unmarked) has Median Survival that meets 20 days or exceeds it?
Data returned: Condition not met

* * *

Reported Median Survival values are given for each entry in this list.
# Tested on: lymphocytic leukemia P388
# protocol-details: Lymphocytic Leukemia P388 Test
# Assay type: in vivo, BDF1 mice
# conditions: dose 1.5 mg/kg intraperitoneally on days 1, 5 and 9; BDF1 mice
Express the result in days but write the number alone.

Br.Br.CC(C)C[C@H](N)C(=O)NCCNc1ccc(NCCNC(=O)[C@@H](N)CC(C)C)c2c1C(=O)c1c(O)ccc(O)c1C2=O (stereo in doubt) yielded Median Survival of 18.0

* * *

# Test system: lymphocytic leukemia P388
# protocol-details: Lymphocytic Leukemia P388 Test
# Format: in vivo, BDF1 mice
# conditions: dose 1.5 mg/kg intraperitoneally on days 1, 5 and 9; BDF1 mice
Param label: returns YES when Median Survival < 20 days, returns NO otherwise, including exact equality.

>>> assigned_category("C[C@H](NC(=O)[C@H](CO)NC(=O)OC(C)(C)C)C(=O)NCCNc1ccc(NCCNC(=O)[C@H](C)NC(=O)[C@H](CO)NC(=O)OC(C)(C)C)c2c1C(=O)c1c(O)ccc(O)c1C2=O")
"YES"

Data request: I'd appreciate it if you could check whether "Br.Br.C[C@H](NC(=O)OC(C)(C)C)C(=O)N[C@@H](C)C(=O)N[C@@H](CCCNC(=N)N)C(=O)NCCNc1ccc(NCCNC(=O)[C@H](CCCNC(=N)N)NC(=O)[C@H](C)NC(=O)[C@H](C)NC(=O)OC(C)(C)C)c2c1C(=O)c1c(O)ccc(O)c1C2=O" has Median Survival smaller than 20 days.
Data returned: YES

Data request: I'd appreciate it if you could check whether CC(C)C[C@H](N)C(=O)NCCNc1ccc(NCCNC(=O)[C@@H](N)CC(C)C)c2c1C(=O)c1c(O)ccc(O)c1C2=O.Cl.Cl (stereo in doubt) has Median Survival smaller than 20 days.
Data returned: NO

Data request: # check: Median Survival < 20 days for N[C@@H](CC(=O)OCc1ccccc1)C(=O)NCCNc1ccc(NCCNC(=O)[C@@H](N)CC(=O)OCc2ccccc2)c2c1C(=O)c1c(O)ccc(O)c1C2=O.O=C(O)C(F)(F)F.O=C(O)C(F)(F)F (relative stereo)
Data returned: NO

* * *

# System: lymphocytic leukemia P388
# protocol-details: Lymphocytic Leukemia P388 Test
# Assay type: in vivo, BDF1 mice
# conditions: dose 0.75 mg/kg intraperitoneally on days 1, 5 and 9; BDF1 mice
# Description: The animals used were BDF1 mice, all of one sex, weighing a minimum of 18 g and all within a 3 g weight range. There were 5 or 6 mice per test group. The tumor transplant was by intraperitoneal injection of 0.5 ml of dilute ascitic fluid containing 10^6 cells of lymphocytic leukemia P388. […] The animals were weighed and survivors recorded on a regular basis for 60 days. The median survival time and the ratio of survival time for treated (T)/control (C) animals were calculated.
*1 amine or outer side, *2 acyl side, *3 side chain or, on linkers, in order; H or OH if unused. Where a SMILES comes first, the peptide text is derived from it. Bridges are numbered along the chain shown (N, C = ends). Roman numbers before positions name the chains, in order. X1 = O=C1c2c(O)ccc(O)c2C(=O)c2c(NCCN[*:2])ccc(NCCN[*:1])c21
# maps each entry to its Median Survival
Reply numerically in days, unit not repeated.

A selection of reference data follows.
>>> reading("CC(C)(C)OC(=O)C[C@H](N)C(=O)NCCNc1ccc(NCCNC(=O)[C@@H](N)CC(=O)OC(C)(C)C)c2c1C(=O)c1c(O)ccc(O)c1C2=O (relative stereo)")
21.5
>>> reading("NCC(=O)NCC(=O)NCC(=O)NCCNc1ccc(NCCNC(=O)CNC(=O)CNC(=O)CN)c2c1C(=O)c1c(O)ccc(O)c1C2=O.O=C(O)C(F)(F)F.O=C(O)C(F)(F)F")
19.5
>>> reading("N[C@@H](CC(=O)OCc1ccccc1)C(=O)NCCNc1ccc(NCCNC(=O)[C@@H](N)CC(=O)OCc2ccccc2)c2c1C(=O)c1c(O)ccc(O)c1C2=O.O=C(O)C(F)(F)F.O=C(O)C(F)(F)F (relative stereo)")
21.0
>>> reading("Br.Br.C[C@H](NC(=O)[C@@H]1CCCN1C(=O)CNC(=O)CNC(=O)[C@@H]1CCCN1C(=O)CN)C(=O)NCCNc1ccc(NCCNC(=O)[C@H](C)NC(=O)[C@@H]2CCCN2C(=O)CNC(=O)CNC(=O)[C@@H]2CCCN2C(=O)CN)c2c1C(=O)c1c(O)ccc(O)c1C2=O [Example 64] (I: H-GPGGPA / II: H-GPGGPA; linker I:C-II:C via X1)")
19.5
>>> reading("CC(C)(C)OC(=O)N[C@@H](COCc1ccccc1)C(=O)NCCNc1ccc(NCCNC(=O)[C@H](COCc2ccccc2)NC(=O)OC(C)(C)C)c2c1C(=O)c1c(O)ccc(O)c1C2=O (relative stereo)")
12.0

The molecule listed as CC(C)C[C@@H](N)C(=O)N(CCO)CCNc1ccc(NCCN(CCO)C(=O)[C@H](N)CC(C)C)c2c1C(=O)c1c(O)ccc(O)c1C2=O.O=C(O)C(F)(F)F.O=C(O)C(F)(F)F.O=C(O)C(F)(F)F (relative stereo) shows Median Survival equal to 12.0

// Median Survival value for C[C@@H](O)[C@H](N)C(=O)NCCNc1ccc(NCCNC(=O)[C@@H](N)[C@@H](C)O)c2c1C(=O)c1c(O)ccc(O)c1C2=O.O=C(O)C(F)(F)F.O=C(O)C(F)(F)F (relative stereo) : 21.0

The measured Median Survival associated with CC(C)(C)OC(=O)N[C@@H](CC(=O)OCc1ccccc1)C(=O)NCCNc1ccc(NCCNC(=O)[C@H](CC(=O)OCc2ccccc2)NC(=O)OC(C)(C)C)c2c1C(=O)c1c(O)ccc(O)c1C2=O (relative stereo) reads 14.0

Value of measured Median Survival for the entry Br.Br.CC(C)C[C@H](N)C(=O)NCCNc1ccc(NCCNC(=O)[C@@H](N)CC(C)C)c2c1C(=O)c1c(O)ccc(O)c1C2=O (stereo in doubt) : 17.5

Looking up "Br.Br.Br.Br.C[C@H](N)C(=O)N[C@@H](CCCNC(=N)N)C(=O)NCCNc1ccc(NCCNC(=O)[C@H](CCCNC(=N)N)NC(=O)[C@H](C)N)c2c1C(=O)c1c(O)ccc(O)c1C2=O" , I see its Median Survival listed as 22.5

Documented Median Survival of "CC(C)C[C@H](NC(=O)[C@H](C)NC(=O)[C@H](CC(=O)OC(C)(C)C)NC(=O)OCC1c2ccccc2-c2ccccc21)C(=O)NCCNc1ccc(NCCNC(=O)[C@H](CC(C)C)NC(=O)[C@H](C)NC(=O)[C@H](CC(=O)OC(C)(C)C)NC(=O)OCC2c3ccccc3-c3ccccc32)c2c1C(=O)c1c(O)ccc(O)c1C2=O" : 16.0

Recorded Median Survival (molecule "O=C(CNC(=O)OCc1ccccc1)N[C@@H](Cc1ccccc1)C(=O)NCCNc1ccc(NCCNC(=O)[C@H](Cc2ccccc2)NC(=O)CNC(=O)OCc2ccccc2)c2c1C(=O)c1c(O)ccc(O)c1C2=O" ): 18.5

Data point: CC[C@H](C)[C@H](N)C(=O)NCCNc1ccc(NCCNC(=O)[C@@H](N)[C@@H](C)CC)c2c1C(=O)c1c(O)ccc(O)c1C2=O.Cl.Cl (relative stereo) ; Median Survival = 18.5

Lab note: "CC(C)(C)OC(=O)NCC(=O)NCC(=O)NCC(=O)NCCNc1ccc(NCCNC(=O)CNC(=O)CNC(=O)CNC(=O)OC(C)(C)C)c2c1C(=O)c1c(O)ccc(O)c1C2=O" gave Median Survival of 15.0
